Parameters: species or system Male Sprague-Dawley rats
Details: rat, in vivo, po, 100 mg/kg
Value kind: Mean Peak Serum [PTH] (pg/ml) ± SD (pg/mL)

mol_smiles=O=C(O)CCCCCCc1nnc(-c2cc(Cl)ccc2O)o1 reported_result=22.91

A: O=C(O)CCCCCCCc1nnc(-c2ccccc2O)o1
B: Cc1ccc(-c2nnc(CCCCCCC(=O)O)o2)c(O)c1
C: O=C(O)CCCCc1nnc(-c2ccccc2O)o1
D: O=C(O)CCCCCCc1nnc(-c2cc(Cl)cc(Cl)c2O)o1
E: O=C(O)CCCCCCc1nnc(-c2ccccc2O)o1
Put the entries in order of Mean Peak Serum [PTH] (pg/ml) ± SD, starting with the largest number. Answer by naming the labels in the order asked.
E, A, B, C, D
(E: 498.55 pg/mL, A: 330.74 pg/mL, B: 138.9 pg/mL, C: 57.88 pg/mL, D: 14.44 pg/mL)

###

Parameters: species or system Male Sprague-Dawley rats
Settings: rat, in vivo, po, 100 mg/kg
Value kind: AUC

Worked cases, answers included:
molecule="O=C(O)CCCCCCc1nnc(-c2cc(Cl)ccc2O)o1 [Compound 5]" value_kind=AUC reported_result=509.20
molecule="O=C(O)CCCCc1nnc(-c2ccccc2O)o1 [Compound 3]" value_kind=AUC reported_result=2717.51
molecule="Cc1ccc(-c2nnc(CCCCCCC(=O)O)o2)c(O)c1 [Compound 7]" value_kind=AUC reported_result=4790.10

a: O=C(O)CCCCCCc1nnc(-c2cc(Cl)cc(Cl)c2O)o1 [Compound 6]
b: O=C(O)CCCCCCCc1nnc(-c2ccccc2O)o1 [Compound 4]
Consider entries a and b . Which has the numerically lower AUC? Let me know the label of the one you choose.
a

Taken from patent EP1156787B1.
